Target: T1, CEACAM1 (Sino Biological) (human, UniProt P13688 35-428, limits assumed)
T1 construct: may be the same as CEACAM1-HIS; also called hCEACAM1; biotinylated soluble CEACAM1
T1 sequence: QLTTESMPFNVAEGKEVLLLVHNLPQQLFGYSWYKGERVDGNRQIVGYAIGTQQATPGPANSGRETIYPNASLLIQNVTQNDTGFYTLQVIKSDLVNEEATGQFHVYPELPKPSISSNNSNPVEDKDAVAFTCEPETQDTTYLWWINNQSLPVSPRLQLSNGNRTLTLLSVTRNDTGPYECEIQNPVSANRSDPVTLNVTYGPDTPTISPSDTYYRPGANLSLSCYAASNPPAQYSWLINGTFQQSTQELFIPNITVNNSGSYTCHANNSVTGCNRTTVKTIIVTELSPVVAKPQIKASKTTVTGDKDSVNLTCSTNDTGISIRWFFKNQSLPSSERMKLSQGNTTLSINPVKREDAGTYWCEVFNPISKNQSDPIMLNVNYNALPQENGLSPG
Experiment: SPR single-cycle
Endpoint: fold better than Parent (KD) (fold)
Give bare numbers, in fold.

Binder | Value Unit | fold better than Parent (KD)
Parent VH/L19 (antibody, IgG4, V domains shown, IgG4 S241P, kappa) VH: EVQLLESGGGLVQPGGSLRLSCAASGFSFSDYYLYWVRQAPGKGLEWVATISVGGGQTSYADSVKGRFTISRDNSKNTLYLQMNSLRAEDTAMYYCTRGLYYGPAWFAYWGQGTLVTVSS VL: DIVMTQSPDSLAVSLGERATINCKSSQSLLNSANQKNYLAWYQQKPGQPPKLLIYFASTRESGVPDRFSGSGSGTDFTLTISSLQAEDVAVYYCQSHIYPNFTFGGGTKVEIK | fold | 2.08

Exam item: I have this binder here, He13/L5 (antibody, IgG4, V domains shown, IgG4 S241P, kappa) VH: EVQLLESGGGLVQPGGSLRLSCAASGFSFSDYYLYWVRQAPGKGLEWVATISVGGGQTSYADSVKGRFTISRDNSKNTLYLQMNSLRAEDTAMYYCTRGLYYGPSWLAYWGQGTLVTVSS VL: DIVMTQSPDSLAVSLGERATINCKSSQSLLNSANQKNYLAWYQQKPGQPPKLLIYFASTRESGVPDRFSGSGSGTDFTLTISSLQAEDVAVYYCQSHYPFAFTFGGGTKVEIK , and I need its recorded fold better than Parent (KD).
Marked response: 1.68
